# procedure-summary: Octanol/water partition coefficient, log P of the compound by LC-MS analysis
# Assay type: physicochemical
# test-settings: read-out: logP
value-type: logP
The answer should be a number; do not append a unit.

Example entries and their recorded answers appear below.
compound: CCCCn1cc(C(=O)NCc2ccccc2)c(=O)c2ccc(OCCOCCOCCOC)cc21
val: 3.57
--
compound: CCCCN1CC(C)(C(=O)NCc2ccccc2)C(=O)c2ccc(N3CCOCC3)cc21 (centres undefined)
val: 3.04
--
compound: CCCCn1cc(C(=O)NCc2ccccc2)c(=O)c2cc(F)c(N3CCOCC3)c(Br)c21
val: 5.05
--
compound: CCCCn1cc(C(=O)NC2(c3ccccc3)CC2)c(=O)c2ccc(N3CCOCC3)cc21
val: 3.76
--
compound: O=C(NCc1ccccc1)c1cn(CC2CC2)c2cc(N3CCOCC3)ccc2c1=O
val: 3.24

Which logP is listed for `CCCCn1cc(C(=O)NC2(c3ccccc3)CCCC2)c(=O)c2ccc(N3CCOCC3)cc21` ?
4.57
